MEASUREMENT TARGET: Human GLP-1 receptor (Homo sapiens)
Construct: The full-length cDNA was cloned in pcDNA3.1(+); expressed in transfected cells
Sequence (P43220 24-463): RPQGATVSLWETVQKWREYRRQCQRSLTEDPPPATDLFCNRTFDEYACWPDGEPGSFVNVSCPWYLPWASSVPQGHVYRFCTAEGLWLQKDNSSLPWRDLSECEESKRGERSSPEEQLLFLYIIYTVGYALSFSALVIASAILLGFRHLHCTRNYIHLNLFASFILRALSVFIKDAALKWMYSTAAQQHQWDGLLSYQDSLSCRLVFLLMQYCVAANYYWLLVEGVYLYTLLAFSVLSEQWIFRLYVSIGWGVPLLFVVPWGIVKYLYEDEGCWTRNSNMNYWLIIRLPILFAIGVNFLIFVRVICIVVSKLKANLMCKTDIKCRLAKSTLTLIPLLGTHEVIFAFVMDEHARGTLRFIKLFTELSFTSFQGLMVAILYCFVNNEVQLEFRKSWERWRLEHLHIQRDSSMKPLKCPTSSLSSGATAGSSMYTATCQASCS
ASSAY INFO: In vitro Human GLP-1 R agonist activity (cyclic AMP determination) in CHO/human GLP1R cells
Assay type: cell-based
EXPERIMENTAL SETUP: 100 nM test compound
Field: Human GLP-1 R activity (cAMP release), % activity with respect to control. Provide a value for each of the compounds that follow.
Give bare numbers, in %.

Below: 2 compounds and their reported Human GLP-1 R activity (cAMP release), % activity with respect to control.
CCc1cc(OC)ccc1-c1ccc(CC(NC(=O)[C@H](CC(=O)O)NC(=O)[C@H](CO)NC(=O)[C@@H](NC(=O)C(C)(Cc2ccccc2F)NC(=O)[C@@H](NC(=O)CNC(=O)C(CCC#N)NC(=O)C(C)(C)NC(=O)[C@@H](N)Cc2c[nH]cn2)[C@H](C)O)[C@H](C)O)C(=S)NC(CCCc2ccccc2F)C(N)=O)cc1 (single isomer, unassigned)	99
CCc1cc(OC)ccc1-c1ccc(CC(NC(=O)[C@H](CC(=O)O)NC(=O)[C@H](CO)NC(=O)[C@@H](NC(=O)[C@H](Cc2ccccc2)NC(=O)[C@@H](NC(=O)CNC(=O)[C@H](CCC(N)=O)NC(=O)C(C)(C)NC(=O)[C@@H](N)Cc2c[nH]cn2)[C@@H](C)O)[C@@H](C)O)C(=O)NC(CCCc2ccc(OC)cc2Cl)C(N)=O)cc1 (single isomer, unassigned)	88

Below: the item to evaluate.
Output measured Human GLP-1 R activity (cAMP release), % activity with respect to control for this item: CCc1cc(OC)ccc1-c1ccc(CC(NC(=O)[C@H](CC(=O)O)NC(=O)[C@H](CO)NC(=O)[C@@H](NC(=O)[C@H](Cc2ccccc2)NC(=O)[C@@H](NC(=O)CNC(=O)[C@H](CCC(N)=O)NC(=O)[C@H](CO)NC(=O)[C@@H](N)Cc2c[nH]cn2)[C@@H](C)O)[C@@H](C)O)C(=O)NC(CCCc2ccccc2C(F)(F)F)C(N)=O)cc1 (single isomer, unassigned)
93

* * *

ASSAY INFO: Stability in human plasma
Format: in vitro ADME
EXPERIMENTAL SETUP: 2 μM peptidomimetic, pooled human plasma, 37° C.
READOUT: half-life (t1/2) when incubated with human plasma

CCc1cc(OC)ccc1-c1ccc(CC(NC(=O)[C@H](CC(=O)O)NC(=O)[C@H](CO)NC(=O)[C@@H](NC(=O)[C@H](Cc2ccccc2)NC(=O)[C@@H](NC(=O)CNC(=O)C(CCC#N)NC(=O)C(C)(C)NC(=O)[C@@H](N)Cc2c[nH]cn2)[C@@H](C)O)[C@@H](C)O)C(=O)NC(CCCc2ccc(Cl)cc2C)C(N)=O)cc1 (single isomer, unassigned)	(9) h
CCc1cc(OC)ccc1-c1ccc(CC(NC(=O)[C@H](CC(=O)O)NC(=O)[C@H](CO)NC(=O)[C@@H](NC(=O)[C@H](Cc2ccccc2)NC(=O)[C@@H](NC(=O)CNC(=O)C(CCC#N)NC(=O)C(C)(C)NC(=O)[C@@H](N)Cc2c[nH]cn2)[C@@H](C)O)[C@@H](C)O)C(=O)NC(CCCc2ccc(F)cc2C(F)(F)F)C(N)=O)cc1 (single isomer, unassigned)	(9) h
CCc1cc(OC)ccc1-c1ccc(CC(NC(=O)[C@H](CC(=O)O)NC(=O)[C@H](CO)NC(=O)[C@@H](NC(=O)C(C)(Cc2ccccc2)NC(=O)[C@@H](NC(=O)CNC(=O)[C@H](CC(C(F)(F)F)C(F)(F)F)NC(=O)C(C)(C)NC(=O)[C@@H](N)Cc2c[nH]cn2)[C@@H](C)O)[C@@H](C)O)C(=O)NC(CCCc2ccccc2)C(N)=O)cc1 (single isomer, unassigned)	(9) h

* * *

ASSAY INFO: Stability in human plasma
Type: in vitro ADME
EXPERIMENTAL SETUP: 2 μM peptidomimetic, pooled human plasma, 37° C., 24 h
Non-standard residues stand in square brackets, D forms with d. Residues, ends and D or L forms follow the SMILES beside them. ξ: configuration not given here. ξNMeBip(2'-Et,4'-OMe) = CCc1cc(OC)ccc1-c1ccc(CC(NC)C(=O)O)cc1; Leu(5,5,5,5',5',5'-F6) = N[C@@H](CC(C(F)(F)F)C(F)(F)F)C(=O)O; ξNMeNva(5-(2-F-Ph)) = CNC(CCCc1ccccc1F)C(=O)O; ξαMePhe(2-F) = CC(N)(Cc1ccccc1F)C(=O)O; NMeD = CN[C@@H](CC(=O)O)C(=O)O; aThr = C[C@H](O)[C@H](N)C(=O)O; Aib = CC(C)(N)C(=O)O
READOUT: % degradation of peptidomimetics in 24 h when incubated with human plasma (%)
Give bare numbers, in %.

Worked examples follow.
CCc1cc(OC)ccc1-c1ccc(CC(NC(=O)[C@H](CC(=O)O)NC(=O)[C@H](CO)NC(=O)[C@@H](NC(=O)C(C)(Cc2ccccc2F)NC(=O)[C@@H](NC(=O)CNC(=O)C(CCC#N)NC(=O)C(C)(C)NC(=O)[C@@H](N)Cc2c[nH]cn2)[C@@H](C)O)[C@H](C)O)C(=O)NC(CCCc2ccccc2F)C(N)=O)cc1 (single isomer, unassigned)	00
CCc1cc(OC)ccc1-c1ccc(CC(NC(=O)[C@H](CC(=O)O)NC(=O)[C@H](CO)NC(=O)[C@@H](NC(=O)[C@H](Cc2ccccc2)NC(=O)[C@@H](NC(=O)CNC(=O)[C@H](CCC(N)=O)NC(=O)[C@H](CO)NC(=O)[C@@H](N)Cc2c[nH]cn2)[C@@H](C)O)[C@@H](C)O)C(=O)NC(CCCc2ccccc2F)C(N)=O)cc1 (single isomer, unassigned)	80
CCc1cc(OC)ccc1-c1ccc(CC(NC(=O)[C@H](CC(=O)O)NC(=O)[C@H](CO)NC(=O)[C@@H](NC(=O)[C@H](Cc2ccccc2)NC(=O)[C@@H](NC(=O)CNC(=O)[C@H](CCC(N)=O)NC(=O)C(C)(C)NC(=O)[C@@H](N)Cc2c[nH]cn2)[C@@H](C)O)[C@@H](C)O)C(=O)NC(CCCc2ccc(OC)cc2Cl)C(N)=O)cc1 (single isomer, unassigned)	75
CCc1cc(OC)ccc1-c1ccc(CC(CNC(CCCc2ccccc2)C(N)=O)NC(=O)[C@H](CC(=O)O)NC(=O)[C@H](CO)NC(=O)[C@@H](NC(=O)C(C)(Cc2ccccc2F)NC(=O)[C@@H](NC(=O)CNC(=O)[C@H](CCC(N)=O)NC(=O)C(C)(C)NC(=O)[C@H](Cc2c[nH]cn2)NC(C)=O)[C@H](C)O)[C@H](C)O)cc1 (single isomer, unassigned)	00

Shifting focus to the molecule that follows.
Return value of % degradation of peptidomimetics in 24 h when incubated with human plasma for input CCc1cc(OC)ccc1-c1ccc(CC(C(=O)N(C)C(CCCc2ccccc2F)C(N)=O)N(C)C(=O)[C@H](CC(=O)O)N(C)C(=O)[C@H](CO)NC(=O)[C@@H](NC(=O)C(C)(Cc2ccccc2F)NC(=O)[C@@H](NC(=O)CNC(=O)[C@H](CC(C(F)(F)F)C(F)(F)F)NC(=O)C(C)(C)NC(=O)[C@@H](N)Cc2c[nH]cn2)[C@H](C)O)[C@H](C)O)cc1 (some centres unmarked) [compound 221] (H-H[Aib][Leu(5,5,5,5',5',5'-F6)]G[aThr][ξαMePhe(2-F)][aThr]S[NMeD][ξNMeBip(2'-Et,4'-OMe)][ξNMeNva(5-(2-F-Ph))]-NH2) , no commentary.
00

* * *

MEASUREMENT TARGET: DPP IV (Homo sapiens)
Sequence (P27487 whole entry, species assumed): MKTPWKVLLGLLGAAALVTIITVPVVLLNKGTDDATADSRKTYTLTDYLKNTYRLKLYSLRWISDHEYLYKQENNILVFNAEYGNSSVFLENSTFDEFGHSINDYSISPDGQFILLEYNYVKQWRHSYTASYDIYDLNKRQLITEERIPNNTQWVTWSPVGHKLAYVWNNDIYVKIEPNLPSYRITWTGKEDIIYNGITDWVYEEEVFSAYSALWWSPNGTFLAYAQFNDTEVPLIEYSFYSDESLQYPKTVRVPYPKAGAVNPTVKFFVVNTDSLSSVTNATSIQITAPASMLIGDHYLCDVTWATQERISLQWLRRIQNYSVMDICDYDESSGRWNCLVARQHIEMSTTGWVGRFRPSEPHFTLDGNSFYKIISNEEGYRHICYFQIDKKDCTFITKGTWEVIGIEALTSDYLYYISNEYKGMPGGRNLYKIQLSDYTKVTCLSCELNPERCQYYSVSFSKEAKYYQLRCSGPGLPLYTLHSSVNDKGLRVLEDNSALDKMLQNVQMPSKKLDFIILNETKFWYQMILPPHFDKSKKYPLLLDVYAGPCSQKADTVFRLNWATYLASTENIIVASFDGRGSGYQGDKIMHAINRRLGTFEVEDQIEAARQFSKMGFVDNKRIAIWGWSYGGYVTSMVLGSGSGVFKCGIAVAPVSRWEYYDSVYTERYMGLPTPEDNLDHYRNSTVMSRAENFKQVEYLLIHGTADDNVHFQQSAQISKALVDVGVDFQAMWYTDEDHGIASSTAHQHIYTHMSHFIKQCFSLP
ASSAY INFO: Stability against DPP IV enzyme
Assay type: in vitro ADME
EXPERIMENTAL SETUP: DPP IV enzyme, pH 7.8, 2 μM peptidomimetic, 37° C., read-out: half-life (t1/2) when incubated with DPP-IV enzyme
Non-standard residues stand in square brackets, D forms with d. Residues, ends and D or L forms follow the SMILES beside them. ξ: configuration not given here. ξBip(2'-Et-4'-OMe) = CCc1cc(OC)ccc1-c1ccc(CC(N)C(=O)O)cc1; ξNva(5-(3,5-Me2-Ph)) = Cc1cc(C)cc(CCCC(N)C(=O)O)c1; ξNva(5-(3-Cl-Ph)) = NC(CCCc1cccc(Cl)c1)C(=O)O
READOUT: half-life at 2 μM (h)
One number for each entry, in h.

Look over these answered cases.
CCc1cc(OC)ccc1-c1ccc(CC(NC(=O)[C@H](CC(=O)O)NC(=O)[C@H](CO)NC(=O)[C@@H](NC(=O)[C@H](Cc2ccccc2)NC(=O)[C@@H](NC(=O)CNC(=O)[C@H](CCC(N)=O)NC(=O)[C@H](CO)NC(=O)[C@@H](N)Cc2c[nH]cn2)[C@@H](C)O)[C@@H](C)O)C(=O)NC(CCCc2cccc(Cl)c2)C(N)=O)cc1 (some centres unmarked) [compound 7] (H-HSQGTFTSD[ξBip(2'-Et-4'-OMe)][ξNva(5-(3-Cl-Ph))]-NH2)	8
CCc1cc(OC)ccc1-c1ccc(CC(NC(=O)[C@H](CC(=O)O)NC(=O)[C@H](CO)NC(=O)[C@@H](NC(=O)[C@H](Cc2ccccc2)NC(=O)[C@@H](NC(=O)CNC(=O)[C@H](CCC(N)=O)NC(=O)[C@H](C)NC(=O)[C@@H](N)Cc2c[nH]cn2)[C@@H](C)O)[C@@H](C)O)C(=O)NC(CCCc2cc(C)cc(C)c2)C(N)=O)cc1 (some centres unmarked) [compound 14] (H-HAQGTFTSD[ξBip(2'-Et-4'-OMe)][ξNva(5-(3,5-Me2-Ph))]-NH2)	9
CCc1cc(OC)ccc1-c1ccc(CC(NC(=O)[C@H](CC(=O)O)NC(=O)[C@H](CO)NC(=O)[C@@H](NC(=O)C(C)(Cc2ccccc2F)NC(=O)[C@@H](NC(=O)CNC(=O)C(CCC#N)NC(=O)C(C)(C)NC(=O)[C@@H](N)Cc2c[nH]cn2)[C@H](C)O)[C@H](C)O)C(=O)N(C)C(CCCc2ccccc2)C(N)=O)cc1 (single isomer, unassigned) [compound 130]	9

// Input: CCc1cc(OC)ccc1-c1ccc(CC(NC(=O)[C@H](CC(=O)O)NC(=O)[C@H](CO)NC(=O)[C@@H](NC(=O)[C@H](Cc2ccccc2)NC(=O)[C@@H](NC(=O)CNC(=O)[C@H](CCC(N)=O)NC(=O)C(C)(C)NC(=O)[C@@H](N)Cc2c[nH]cn2)[C@@H](C)O)[C@@H](C)O)C(=O)NC(CCCc2cccc(Cl)c2)C(N)=O)cc1 (single isomer, unassigned) [compound 19] . Output its half-life at 2 μM only.
9
